Exercise: for every item that follows, state its recorded pEC50.
system: TC-71 (Ewing's sarcoma) cells; test: Cell proliferation assay, TC-71 (Alamar Blue); assay type: cell-based; conditions: 72 h with compound, EC50 ranges as class symbols
pEC50: −log10 of the molar value.

Would you mind telling me what pEC50 value was observed for CC(C)(O)CN1CCC(c2ccc(Nc3ncc(C(F)(F)F)c(NCc4cccc5c4C(C)(C)C(=O)N5)n3)c(OC(F)F)c2)CC1 [Example I-310] ? 6.60 to 7.30

Consider the compound CNC1(C(=O)N2CCC(c3ccc(Nc4ncc(Cl)c(NCc5cccc6c5C(C)(C)C(=O)N6)n4)c(C)c3)CC2)CC1 [Example I-295] and give its measured pEC50. 6.60 to 7.30

Item under review: Cc1cc(C2CCN(CCO)CC2)ccc1Nc1ncc(C(F)(F)F)c(NCc2cccc3c2C(C)(C)C(=O)N3)n1 [Example I-355] . Reported pEC50? 5.52 to 6.60

For the compound COCCN1CCC(n2cc(Nc3ncc(Cl)c(NCc4cccc5c4C(C)(C)C(=O)N5)n3)cn2)CC1 [Example I-215] , what pEC50 is on record? 5.52 to 6.60

----------
Exercise: for every item that follows, state its recorded pIC50.
target: cytoplasmic kinase domain of human IGF-1R (IGF-1R-GST) (Homo sapiens); construct: cytoplasmic kinase domain of human IGF-1R (amino acids 964-1370); GST (glutathione-S-transferase); assay: Insulin-like growth factor-1 receptor (IGF-1R) kinase assay (DELFIA); details: IGF-1R-GST kinase activity, read-out: IGF1R IC50
Sequence (P08069 964-1367 limits assumed): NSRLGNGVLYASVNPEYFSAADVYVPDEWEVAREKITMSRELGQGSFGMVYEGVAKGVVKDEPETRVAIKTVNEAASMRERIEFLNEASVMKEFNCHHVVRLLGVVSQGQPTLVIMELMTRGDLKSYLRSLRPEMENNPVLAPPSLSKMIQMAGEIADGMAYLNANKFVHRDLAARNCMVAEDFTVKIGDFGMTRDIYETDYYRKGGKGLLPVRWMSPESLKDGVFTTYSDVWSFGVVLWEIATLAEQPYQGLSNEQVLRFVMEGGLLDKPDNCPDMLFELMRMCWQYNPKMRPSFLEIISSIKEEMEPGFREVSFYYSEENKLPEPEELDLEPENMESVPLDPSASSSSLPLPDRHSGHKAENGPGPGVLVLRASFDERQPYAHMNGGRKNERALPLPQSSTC
Here pIC50 is given on a logarithmic scale as minus log10 of the concentration in mol/L.

pIC50 lookup needed for "COc1cc(N2CCN(C)CC2)ccc1Nc1ncc(C(F)(F)F)c(NCc2cccc3c2C2(CC2)C(=O)N3)n1" , thanks. 8.40

What pIC50 value was documented for this compound, COc1cc(N2CC3CC2CN3C(=O)N(C)C)ccc1Nc1ncc(C(F)(F)F)c(NCc2cccc3c2C(C)(C)C(=O)N3)n1 (centres unmarked) ? 7.09

Item under review: "CC(C)(C)OC(=O)NCC(=O)N1CCC(c2ccc(Nc3ncc(Cl)c(NCc4cccc5c4C(C)(C)C(=O)N5)n3)cc2)CC1" . Reported pIC50? 7.64

I would be grateful if you could share the reported pIC50 for COc1cc(C2CCCN(CCO)C2)ccc1Nc1ncc(Cl)c(NCc2cccc3c2C(C)(C)C(=O)N3)n1 (racemic) . 9.10

Bench note: what pIC50 did "COCCN1CCC(n2cc(Nc3ncc(Cl)c(NCc4cccc5c4C(C)(C)C(=O)N5)n3)cn2)CC1" show? 7.92

----------
Biological target: cytoplasmic kinase domain of human IGF-1R (IGF-1R-GST) (Homo sapiens)
Construct: cytoplasmic kinase domain of human IGF-1R (amino acids 964-1370); GST (glutathione-S-transferase); made in house; host or cells: High Five insect cells (Invitrogen)
Assay: Insulin-like growth factor-1 receptor (IGF-1R) kinase assay (DELFIA)
Type: biochemical
Details: IGF-1R-GST kinase activity, read-out: IGF1R IC50
Description: Insulin-Like Growth Factor-1 Receptor (IGF-1R)-Kinase Assay The kinase activity is measured by DELFIA® assay (dissociation-enhanced lanthanide fluorescence immunoassay, Perkin Elmer). […] Enzyme activity is measured in the presence of substances and a control substance. […] After 40 min at RT the reactions are stopped with 50 μL of stop solution (250 mM EDTA, 20 mM HEPES pH 7.4). […] The fluorescence signal is measured with a Wallac Victor TRF Reader. […]
Exercise: state measured pIC50 for each of the compounds provided.
By convention, pIC50 is the negative base-10 log of a molar concentration.

Param item = COCCCN(C)C1CCN(c2ccc(Nc3ncc(C(F)(F)F)c(NCc4cccc5c4C(C)(C)C(=O)N5)n3)c(OC)c2)CC1 [Example I-168] ; retrieve measured pIC50. 9.70

Which pIC50 is listed for CC1(C)C(=O)Nc2cccc(CNc3nc(Nc4ccc(C5CCCNC5)cc4)ncc3Br)c21 (racemic) [Example I-238] ? 9.00

Please look up its pIC50: CCOc1cc(N2CCNCC2)ccc1Nc1ncc(C(F)(F)F)c(NCc2cccc3c2C(C)(C)C(=O)N3)n1 [Example I-33] 9.22

Using the record for COCCN1CCC(c2ccc(Nc3ncc(Cl)c(NCc4cccc5c4C(C)(C)C(=O)N5)n3)c(C)c2)CC1 [Example I-218] , report its pIC50. 9.00

I'd like to know its pIC50. The compound in question is CCOc1cc(N2CCN(CC)CC2)ccc1Nc1ncc(C(F)(F)F)c(NCc2cccc3c2CC(=O)N3)n1 [Example I-140] 7.96

Bench note: what pIC50 did COCCNC1CCN(c2ccc(Nc3ncc(C(F)(F)F)c(NCc4cccc5c4CC(=O)N5)n3)c(OC)c2)CC1 [Example I-179] show? 8.70

I have this compound here, Cc1c(Nc2ncc(C(F)(F)F)c(NCc3cccc4c3C(C)(C)C(=O)N4)n2)ccc(C2CCN(CC(C)(C)O)CC2)c1C [Example I-313] , and I need its recorded pIC50. 9.30

I would be grateful if you could share the reported pIC50 for Cc1cc(C2CCN(CC#N)CC2)ccc1Nc1ncc(Cl)c(NCc2cccc3c2C(C)(C)C(=O)N3)n1 [Example I-375] . 8.05

Give its pIC50 value. Item: Cc1cc(C2CCCN(CC(C)(C)O)C2)ccc1Nc1ncc(Br)c(NCc2cccc3c2C(C)(C)C(=O)N3)n1 (racemic) [Example I-318] 9.40

Would you kindly share the measured pIC50 for CC(C)N1CCC(c2ccc(Nc3ncc(C(F)(F)F)c(NCc4cccc5c4C(C)(C)C(=O)N5)n3)cc2)CC1 [Example I-134] ? 9.00

Entry CC(C)(O)CN1CCC(c2ccc(Nc3ncc(C(F)(F)F)c(NCc4cccc5c4C(C)(C)C(=O)N5)n3)c3c2OCO3)CC1 [Example I-315] has what pIC50? 8.72

What value of pIC50 has been recorded for this entry: COc1cc(N2CCC(N(C)CCO)CC2)ccc1Nc1ncc(C(F)(F)F)c(NCc2cccc3c2C(C)(C)C(=O)N3)n1 [Example I-169] 9.59

# pIC50 lookup, item COc1cc(N2CCC(NCCO)CC2)ccc1Nc1ncc(C(F)(F)F)c(NCc2cccc3c2CC(=O)N3)n1 [Example I-191] 8.22

Consider the compound shown here: COc1cc(N2CCN(C(=O)CCN(C)C)CC2)ccc1Nc1ncc(C(F)(F)F)c(NCc2cccc3c2C(C)(C)C(=O)N3)n1 [Example I-89] What is its recorded pIC50? 9.74

Value lookup for pIC50; key = COc1cc(C2CCN(CC(C)(C)O)CC2)ccc1Nc1ncc(Cl)c(NCc2cccc3c2C(C)(C)C(=O)N3)n1 [Example I-331] 9.00

# pIC50 lookup, item COc1cc(N2CCC(N3CCN(C(C)C)CC3)CC2)ccc1Nc1ncc(C(F)(F)F)c(NCc2cccc3c2CC(=O)N3)n1 [Example I-198] 7.96

Entry CCN1CCN(c2ccc(Nc3ncc(C(F)(F)F)c(NCc4cccc5c4C(C)(C)C(=O)N5)n3)c(OC)c2)C[C@H]1C [Example I-107] : reported pIC50 = ? 9.21

Reported pIC50 for CC1(C)C(=O)Nc2cccc(CNc3nc(Nc4ccc(C5CCCN(CCO)C5)cc4)ncc3Cl)c21 (racemic) [Example I-381] : what is it? 9.05
